system: S. aureus NMI 1991 K MRSA; test: Antibacterial activity against clinical MRSA: MIC/MBC; assay type: cell-based; settings: Staphylococcus aureus; NMI 1991 K MRSA; read-out: MIC
Reported MIC is given for each of the following molecules.

MOLECULE | MIC / µg/mL
CC(=O)NC[C@H]1CN(c2ccc(N3CCOCC3)c(F)c2)C(=O)O1 [LIN, linezolid, reference compound] | 1
CC(=O)CSc1ccc2c(c1F)[Si](C)(C)OB2O [Compound 22] | 3.12
C[Si]1(C)OB(O)c2ccc(SC(=O)c3ccc(C(F)(F)F)cc3)c(F)c21 [Compound 25] | 25
C[Si]1(C)OB(O)c2cc(F)c(SC3CC(=O)NC3=O)c(F)c21 (stereo not shown) [Compound 12] | 12.5
C[Si]1(C)OB(O)c2cc(F)c(SCCS(=O)(=O)c3ccccc3)c(F)c21 [Compound 20] | 6.25
C[Si]1(C)OB(O)c2ccc(SCC(=O)c3ccccc3)c(F)c21 [Compound 23] | 1.56
C[Si]1(C)OB(O)c2cc(F)c(SCCC#N)c(F)c21 [Compound 6] | 12.5
